// provenance: PubChem BioAssay (NCI)

This listing pairs compounds with measured GI50.
- Test system: SR leukemia
- assay.remarks: NCI tumour cell line growth inhibition, 48 h
assay.metric: GI50

INSERT INTO assay_data (compound_smiles, assay_metric, measurement) VALUES
  ('CCCCCCn1c(-c2ccc(C(=O)O/N=C(\N)c3ccc4c(c3)OCO4)cc2)nc(-c2ccccc2)c1-c1ccccc1', 'GI50', '280 nM'),
  ('COc1cc2c(cc1OCCCN1CCN(CCCOc3cc4c(cc3OC)C(=O)N3CC(F)(F)C[C@H]3C=N4)CC1)N=C[C@@H]1CC(F)(F)CN1C2=O', 'GI50', '882 nM'),
  ('CO[C@@H]1CC[C@]2(C)OC[C@H](C)[C@@H]3C[C@@H](C)[C@@H](OC(C)=O)[C@@H]4[C@H]3[C@@H]2O[C@H]4C[C@@]1(C)O', 'GI50', '> 100000 nM'),
  ('O=c1[nH]c(O)c(C=Nc2ccc(-c3nc4ccccc4o3)cc2)c(=O)[nH]1', 'GI50', '44500 nM'),
  ('NC(N)=Nc1nc2ccccc2o1', 'GI50', '> 100000 nM'),
  ('COc1ccc(Cl)cc1NC(=O)c1ccc(NC2=C(Cl)C(=O)N(Cc3ccccc3)C2=O)cc1', 'GI50', '2760 nM'),
  ('Nc1c(C(=O)Nc2ccccn2)sc2nc3c(cc12)C(=O)CCC3', 'GI50', '2750 nM');

* * *

- System: UO-31 renal
- assay.remarks: NCI tumour cell line growth inhibition, 48 h
assay.metric: GI50

INSERT INTO results (compound, assay_metric, measurement) VALUES
  ('Cc1nc2c(Br)cc(Br)cc2c(=O)n1-c1nnc(-c2cccc(Cl)c2Cl)c(N)n1', 'GI50', '31 µM'),
  ('O=C(Nc1ncc(Cc2cccc(C(F)(F)F)c2)s1)c1ccc2c(c1)OCCO2', 'GI50', '1.09 µM'),
  ('NC(=O)c1cc(I)ccc1NC(=O)/C=C/c1ccccc1', 'GI50', '1.77 µM'),
  ('O=C(Nc1nc(-c2c[nH]c3ccccc23)cs1)c1n[nH]c(=O)c2ccccc12', 'GI50', '8.46 µM'),
  ('NNc1ncnc2nc[nH]c12', 'GI50', '2.48 µM'),
  ('COc1cc2c(cc1OCCCN1CCN(CCCOc3cc4c(cc3OC)C(=O)N3CC(F)(F)C[C@H]3C=N4)CC1)N=C[C@@H]1CC(F)(F)CN1C2=O', 'GI50', '11.4 µM'),
  ('COC(=O)/C=C/c1cc(OC(C)=O)c2c(c1)C(C(=O)OC)C(c1ccc(OC(C)=O)c(OC(C)=O)c1)O2 (stereo unspecified)', 'GI50', '0.99 µM'),
  ('NC(N)=Nc1nc2ccccc2o1', 'GI50', '79.4 µM'),
  ('CCSc1nc(N=Cc2ccccc2O)c2cn[nH]c2n1', 'GI50', '61.6 µM'),
  ('C=C(CN(C)Cc1ccccc1)c1ccc(NC(=O)c2ccc(C(=C)CN(C)Cc3ccccc3)cc2)cc1', 'GI50', '76.2 µM'),
  ('CCOC(=O)c1c(C)c2c(n1Cc1ccccc1)CSCC2=O', 'GI50', '13.5 µM');

* * *

- System: NCI-H460 lung
- assay.remarks: NCI tumour cell line growth inhibition, 48 h
assay.metric: TGI

INSERT INTO results (compound, subject_of_test, measurement) VALUES
  ('Cc1ccc(/C=C2/N=C(N/N=C\C(O)C(O)C(O)C(O)CO)NC2=O)cc1 (stereo unspecified)', 'NCI-H460 lung', '> 100 µM'),
  ('O=[N+]([O-])c1cc2oc(CSc3ccccc3)nc2cc1Cl', 'NCI-H460 lung', '81.2 µM'),
  ('COc1ccc(-c2cc(=O)oc3c4c(ccc23)OCN(Cc2ccc(F)cc2)C4)cc1', 'NCI-H460 lung', '30.2 µM'),
  ('COc1cc2c(cc1OCCCN1CCN(CCCOc3cc4c(cc3OC)C(=O)N3CC(F)(F)C[C@H]3C=N4)CC1)N=C[C@@H]1CC(F)(F)CN1C2=O', 'NCI-H460 lung', '15.6 µM'),
  ('CCC(C)(C)n1c(C)nc2c1C(=O)c1ccccc1C2=O', 'NCI-H460 lung', '29 µM'),
  ('CCCCCCCCSC1=C(Cl)C(=O)C(OC)=C(OC)C1=O', 'NCI-H460 lung', '69.5 µM'),
  ('C/C1=C\[C@H](C)C[C@H](C)OC(=O)[C@H](C)NC(=O)[C@@H](Cc2ccc(O)c(Br)c2)N(C)C(=O)[C@H](C)NC(=O)[C@@H](C)C1', 'NCI-H460 lung', '> 19.5 µM'),
  ('O[C@H]1[C@H](O)[C@@H](O)CN2CC[C@H](O)[C@H]12', 'NCI-H460 lung', '> 100 µM'),
  ('Clc1ccc(C=NC23CC4CC(CC(C4)C2)C3)c(Cl)c1', 'NCI-H460 lung', '> 10 µM'),
  ('Cc1cccc(NC2=C(Cl)C(=O)c3nc(C)ccc3C2=O)c1', 'NCI-H460 lung', '3.82 µM'),
  ('O=C(CCSC1=NCCCN1)c1ccc(F)cc1', 'NCI-H460 lung', '47.7 µM'),
  ('CCOC(=O)c1c(C)c2c(n1Cc1ccccc1)CSCC2=O', 'NCI-H460 lung', '55.1 µM'),
  ('O=C(Nc1nc(-c2c[nH]c3ccccc23)cs1)c1n[nH]c(=O)c2ccccc12', 'NCI-H460 lung', '> 36.8 µM'),
  ('Nc1c(S(=O)(=O)c2ccc(Cl)cc2)c2nc3ccccc3nc2n2ccnc12', 'NCI-H460 lung', '> 100 µM'),
  ('O=C(NN1C(=O)CS(=O)(=O)C1c1ccc(C(F)(F)F)cc1)c1ccncc1 (stereo unspecified)', 'NCI-H460 lung', '> 100 µM'),
  ('CN1Nc2ccccc2CC1=O', 'NCI-H460 lung', '> 100 µM'),
  ('COC(=O)c1ccccc1CC1Cc2cccc(C)c2C1=O (stereo unspecified)', 'NCI-H460 lung', '> 100 µM'),
  ('CC1OC(O[C@H]2C3C=CO[C@@H](OC4OC(CO)C(O)C(O)C4O)C3[C@@]3(COC(=O)/C=C/c4ccccc4)O[C@@H]23)C(O)C(O)C1O (stereo partly specified)', 'NCI-H460 lung', '> 100 µM'),
  ('CCc1n[nH]c(=O)n1-c1ccc2ccccc2c1', 'NCI-H460 lung', '> 100 µM'),
  ('CC(C(=O)COCc1ccccc1)P1(=O)OC(C)(C)CN1C(C)(C)C (stereo unspecified)', 'NCI-H460 lung', '> 100 µM'),
  ('COc1ccc(-c2c(C#N)c(N3CCOCC3)nc3[nH]c(=S)[nH]c(=S)c23)cc1OC', 'NCI-H460 lung', '> 100 µM');

* * *

- System: LOX IMVI melanoma
- assay.remarks: NCI tumour cell line growth inhibition, 48 h
assay.metric: TGI

INSERT INTO assay_data (molecule, measurement) VALUES
  ('CN(Cc1cnc2nc(N)nc(N)c2n1)c1ccc(C(=O)N[C@@H](CCS(=O)(=O)O)C(=O)O)cc1', '> 100 µM'),
  ('CC12c3ccccc3C(OC=O)(c3ccccc31)C1(C)c3ccccc3C2(OC=O)c2ccccc21', '> 100 µM'),
  ('COc1ccc(N2C(=O)C3c4[nH]c5cc(C)ccc5c4C4CCC(C(C)(C)C)CC4C3C2=O)cc1 (centres undefined)', '> 10 µM'),
  ('COc1cc2c(cc1OCCCN1CCN(CCCOc3cc4c(cc3OC)C(=O)N3CC(F)(F)C[C@H]3C=N4)CC1)N=C[C@@H]1CC(F)(F)CN1C2=O', '4.83 µM');

* * *

- Test system: COLO 205 colon
- assay.remarks: NCI tumour cell line growth inhibition, 48 h
Where a SMILES comes first, the peptide text is derived from it. [ ]: non-standard residue; d: D form. The star is where a group is joined. Palmitoyl = CCCCCCCCCCCCCCCC(=O)*; Cbz = O=C(OCc1ccccc1)*; Aib = CC(C)(N)C(=O)O; OBn = c1ccc(CO*)cc1
assay.metric: TGI

INSERT INTO results (compound, subject_of_test, measurement) VALUES
  ('COc1cc(/C=C2\CCCCC3=C2N=C2SC(C)=CN2C3c2cc(OC)c(OC)c(OC)c2)cc(OC)c1OC (stereo unspecified)', 'COLO 205 colon', '> 100 µM'),
  ('COc1cc(Nc2ccc3c(c2)CCC3)nc(OC)n1', 'COLO 205 colon', '> 100 µM'),
  ('COc1ccc(/C=C\c2cc(OC)c(OC)c(OC)c2)cc1OCC(=O)O', 'COLO 205 colon', '> 100 µM'),
  ('O=C(c1ccc([N+](=O)[O-])cc1[N+](=O)[O-])N(/N=C/C=C/c1ccccc1)c1nnc(-c2ccccc2)c(-c2ccccc2)n1', 'COLO 205 colon', '> 100 µM'),
  ('NCCCn1c2c(c3ccc([N+](=O)[O-])cc3c1=O)C(=O)c1cc(I)ccc1-2', 'COLO 205 colon', '2.44 µM'),
  ('CNc1nc(N)nc(Nc2ccc(I)cc2)c1N=O', 'COLO 205 colon', '> 100 µM'),
  ('CSc1csc(-c2ccc(-c3ccc(-c4cc(SC)cs4)s3)s2)c1', 'COLO 205 colon', '> 100 µM'),
  ('O=C(CC(=O)Nc1ccccc1)NNC(Sc1ccccc1)c1cc(N=Nc2ccc(Br)cc2)ccc1O (stereo unspecified)', 'COLO 205 colon', '> 10 µM'),
  ('O=C(NCCCl)O/N=C/c1cccnc1', 'COLO 205 colon', '> 100 µM'),
  ('Cc1cc2c(cc1C)[n+](=O)cc(C(=O)C/C(=N/NC(=S)NN)C(=O)Nc1cccc(C(F)(F)F)c1)n2[O-]', 'COLO 205 colon', '> 100 µM'),
  ('COc1cc(C2c3cc4c(cc3[C@@H](Nc3ccccc3)C3COC(=O)[C@H]23)OCO4)cc(OC)c1O (stereo partly specified)', 'COLO 205 colon', '5.66 µM'),
  ('Cn1ncc2c(NCc3ccccc3)ncnc21', 'COLO 205 colon', '> 100 µM'),
  ('Cc1c2c(c(C)n1-c1ccccc1)C(=O)N(CCN1CCN(c3cccc(C(F)(F)F)c3)CC1)C2=O', 'COLO 205 colon', '> 100 µM'),
  ('CC(NC(=O)C(C)(C)NC(=O)C(CC(=O)OCc1ccccc1)NC(=O)OCc1ccccc1)C(N)=O (stereo unspecified) (Cbz-Asp(OBn)-[Aib]-Ala-NH2; configuration not given here)', 'COLO 205 colon', '> 100 µM'),
  ('COc1cc(C[P+](c2ccccc2)(c2ccccc2)c2ccccc2)cc(OC)c1OC', 'COLO 205 colon', '> 100 µM'),
  ('OC(C#CCN1CCCC1)(c1ccccc1)c1ccccc1Cl (stereo unspecified)', 'COLO 205 colon', '25 µM'),
  ('O=C(Nc1nc(-c2c[nH]c3ccccc23)cs1)c1n[nH]c(=O)c2ccccc12', 'COLO 205 colon', '> 60.1 µM'),
  ('COc1ccc(N2C(=O)C3c4[nH]c5cc(C)ccc5c4C4CCC(C(C)(C)C)CC4C3C2=O)cc1 (stereo unspecified)', 'COLO 205 colon', '> 10 µM'),
  ('O=C1/C(=C/c2ccc(Cl)cc2)CCCc2ccccc21', 'COLO 205 colon', '34.9 µM'),
  ('Nc1ncc2c(n1)-c1ccccc1OC2N1CCCC1 (stereo unspecified)', 'COLO 205 colon', '> 100 µM'),
  ('CC[C@]1(O)C[C@H]2CN(CCc3c([nH]c4ccccc34)C(C(=O)OC)(c3cc4c(cc3OC)N(C)[C@H]3[C@@](O)(C(=O)OC)[C@H](OC(C)=O)[C@]5(CC)[C@@H]6C[C@@H]6CN6CC[C@]43[C@@H]65)C2)C1 (stereo partly specified)', 'COLO 205 colon', '0.00937 µM'),
  ('O=C(O)c1ccc(CNCc2ccccc2)cc1', 'COLO 205 colon', '> 100 µM'),
  ('CC(C)N1CCN(c2ccc(OCC3COC(Cn4cncn4)(c4ccc(Cl)cc4Cl)O3)cc2)CC1 (stereo unspecified)', 'COLO 205 colon', '3.69 µM'),
  ('CCOC(=O)CC/C(=N/Nc1ccc(Cl)cc1[N+](=O)[O-])C(=O)OCC', 'COLO 205 colon', '> 100 µM'),
  ('Cc1ccc2c(c1)c1ccc3c(c1n2C)C(=O)C=CC3=O', 'COLO 205 colon', '3.16 µM'),
  ('CC[C@@H]1NC(C(=O)OC)Cc2c1[nH]c1ccccc21 (stereo partly specified)', 'COLO 205 colon', '> 100 µM'),
  ('O=C1CSC2(CC(/C=C/c3cccs3)=NN2c2cccc(S(=O)(=O)O)c2)N1c1nc2ccccc2s1 (stereo unspecified)', 'COLO 205 colon', '> 100 µM'),
  ('CNc1cc2oc(=O)cc(C)c2cc1C', 'COLO 205 colon', '> 100 µM'),
  ('COc1cc2c(cc1OCCCN1CCN(CCCOc3cc4c(cc3OC)C(=O)N3CC(F)(F)C[C@H]3C=N4)CC1)N=C[C@@H]1CC(F)(F)CN1C2=O', 'COLO 205 colon', '10.2 µM'),
  ('[N-]=[N+]=CC(=O)OC(CCl)CCl', 'COLO 205 colon', '> 100 µM'),
  ('COC1OC2COC(c3ccccc3)OC2C(O)C1OC(=S)c1ccccc1 (stereo unspecified)', 'COLO 205 colon', '33 µM'),
  ('CCCCCCCCCCCCCCCC(=O)N1CCCC1C(=O)NCC(=O)NC(Cc1ccccc1)C(=O)N1CCCC1C(=O)NC(CO)C(=O)NC(Cc1ccc(O)cc1)C(=O)NC(CCCCN)C(=O)NC(CC(C)C)C(=O)NC(CCCN=C(N)N)C(=O)N1CCCC1C(=O)NCC(N)=O (stereo unspecified) (Palmitoyl-PGFPSYKLRPG-NH2; configuration not given here)', 'COLO 205 colon', '33.3 µM'),
  ('C=C(C)[C@H]1C2=CC(C(=O)OC)=C(C[C@H](C(=C)C)[C@@H](O)[C@@H](O)C3=C[C@H]1OC3=O)O2', 'COLO 205 colon', '> 100 µM'),
  ('Cc1cc(C)nc(NS(=O)(=O)c2ccc(Nc3c4ccccc4nc4c(C(=O)N5CCN(CCO)CC5)cccc34)cc2)n1', 'COLO 205 colon', '> 100 µM'),
  ('NC(=S)N/N=C/c1ncccc1O', 'COLO 205 colon', '> 431 µM'),
  ('CCN(CCNS(C)(=O)=O)c1ccc(N)c(C)c1', 'COLO 205 colon', '28.9 µM');
